# studyTarget: Rac GTPase-activating protein 1 (Homo sapiens)
# methodDescription: blockers of MgcRacGAP-driven Rac1 GTP hydrolysis – biochemical, ADP Hunter fluorescence, primary and confirmatory, confirmation (AID 624330);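 further: fluorescence reports GDP produced by GAP-driven GTP hydrolysis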
# statedConditions: MgcRacGAP-stimulated Rac1 GTP hydrolysis, at 30 µM, hits give high values, GST-tagged Rac1 F28L mutant substrate
Hit rate of the full screen: of about 340,000 compounds, about 2,100 (0.62%) were called active. Only a sample is shown. Measured potencies and affinities stand elsewhere.
experimentalEndpoint: inhibition (%)
Value expressed in %; do not type the unit.

Known results for compounds:
givenSmiles | recordedResult
O=C(O)c1ccc(S(=O)(=O)NN=Cc2c[nH]c3ccccc23)cc1 | 14.2
Clc1ccc(-c2csc(Nc3ccccc3)[n+]2Cc2ccco2)c(Cl)c1 | 4.62

q: Name the recorded inhibition for COc1ccc2c(/C=N/NS(=O)(=O)c3ccc(C)cc3)c[nH]c2c1 .
a: 11.2

q: Name the recorded inhibition for CSc1ccccc1C(=O)NCc1ccc2c(c1)OCO2 .
a: 3.84

q: Name the recorded inhibition for O=C(O)CNC(=O)c1ccc(Oc2c(F)c(F)c(Oc3ccc(C(=O)NCC(=O)O)cc3)c(F)c2F)cc1 .
a: -1.5

###

# studyTarget: Rac GTPase-activating protein 1 (Homo sapiens) (UniProt Q9H0H5)
# Sequence (Q9H0H5 whole entry, looked up): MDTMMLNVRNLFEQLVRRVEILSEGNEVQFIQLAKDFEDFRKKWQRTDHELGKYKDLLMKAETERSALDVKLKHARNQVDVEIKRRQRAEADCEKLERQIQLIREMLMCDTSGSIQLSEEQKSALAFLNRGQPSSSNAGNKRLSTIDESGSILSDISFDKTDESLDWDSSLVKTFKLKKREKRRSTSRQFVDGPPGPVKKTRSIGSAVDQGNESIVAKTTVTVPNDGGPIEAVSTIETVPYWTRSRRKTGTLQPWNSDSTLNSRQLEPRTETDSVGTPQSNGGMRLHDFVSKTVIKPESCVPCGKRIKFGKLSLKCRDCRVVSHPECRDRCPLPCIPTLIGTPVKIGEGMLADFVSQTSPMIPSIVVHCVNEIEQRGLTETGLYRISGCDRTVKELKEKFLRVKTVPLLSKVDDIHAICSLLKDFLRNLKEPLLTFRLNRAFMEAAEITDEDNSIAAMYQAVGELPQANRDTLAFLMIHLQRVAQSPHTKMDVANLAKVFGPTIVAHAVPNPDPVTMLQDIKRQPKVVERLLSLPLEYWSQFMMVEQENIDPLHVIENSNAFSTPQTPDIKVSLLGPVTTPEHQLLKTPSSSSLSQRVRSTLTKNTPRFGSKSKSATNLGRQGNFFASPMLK
# methodDescription: blockers of MgcRacGAP-driven Rac1 GTP hydrolysis – biochemical, ADP Hunter fluorescence, primary and confirmatory, confirmation (AID 624330);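 further: fluorescence reports GDP produced by GAP-driven GTP hydrolysis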
# statedConditions: MgcRacGAP-stimulated Rac1 GTP hydrolysis, at 30 µM, hits give high values, GST-tagged Rac1 F28L mutant substrate
Out of some 340,000 compounds screened, about 2,100 (0.62%) were called active. A selection follows. Entries with a potency or affinity are not part of this list.
Documented inhibition across a set of molecules
Value expressed in %; do not type the unit.

Known results for molecules:
molecule | experimentalEndpoint | recordedResult
COc1ccccc1CNc1cc(C)ccc1C | inhibition | -1.27
COc1ccc2[nH]c3c(=O)n(CCCCC(=O)N4CCCC4)c(=S)[nH]c3c2c1 | inhibition | 23.1
CC[C@H](C)NC(=O)CCCCCn1c(=S)[nH]c2c([nH]c3ccc(OC)cc32)c1=O | inhibition | 3.32
Cc1ccc(N(C(=O)Cn2nnc(-c3ccccc3F)n2)C(C(=O)NC2CCCC2)c2ccncc2)cc1 (stereo unspecified) | inhibition | 6.05
CC(=Nc1ccccc1)c1sc2ccccc2c1O | inhibition | 19.1

Please examine the following record next.
q: Name the recorded inhibition for CC(=Nc1ccc(C)cc1)c1sc2ccccc2c1O .
a: 2.37

###

# studyTarget: Rac GTPase-activating protein 1 (Homo sapiens) (UniProt Q9H0H5)
# methodDescription: blockers of MgcRacGAP-driven Rac1 GTP hydrolysis – biochemical, ADP Hunter fluorescence, primary and confirmatory, confirmation (AID 624330);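 further: fluorescence reports GDP produced by GAP-driven GTP hydrolysis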
# statedConditions: MgcRacGAP-stimulated Rac1 GTP hydrolysis, at 30 µM, hits give high values, GST-tagged Rac1 F28L mutant substrate
The whole screen tested about 340,000 compounds, of which about 2,100 (0.62%) were called active. Only a sample is shown. Potency and affinity values are given separately.
experimentalEndpoint: inhibition (%)
Value expressed in %; do not type the unit.

Known results for molecules:
molecule | studyTarget | inhibition [%]
CCOC(=O)c1cc(NC(=O)C2C3C=CC(O3)C2C(=O)O)cc(C(=O)OCC)c1 (stereo unspecified) | Rac GTPase-activating protein 1 (Homo sapiens) (UniProt Q9H0H5) | 6.71
COc1ccc(OCc2nn3c(Cn4cnc5ccccc54)nnc3s2)cc1 | Rac GTPase-activating protein 1 (Homo sapiens) (UniProt Q9H0H5) | 19.9
Cc1ccn2c(NC3CCCC3)c(-c3ccsc3)nc2c1 | Rac GTPase-activating protein 1 (Homo sapiens) (UniProt Q9H0H5) | 13.1

q: Name the recorded inhibition for O=C(CN1CCCCC1)Nc1c2c(nc3ccccc13)N(c1ccccc1)CC2 .
a: 20.7

###

Documented inhibition across a set of compounds
# studyTarget: Rac GTPase-activating protein 1 (Homo sapiens)
# methodDescription: blockers of MgcRacGAP-driven Rac1 GTP hydrolysis – biochemical, ADP Hunter fluorescence, primary and confirmatory, confirmation (AID 624330);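 further: fluorescence reports GDP produced by GAP-driven GTP hydrolysis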
# statedConditions: MgcRacGAP-stimulated Rac1 GTP hydrolysis, at 30 µM, hits give high values, GST-tagged Rac1 F28L mutant substrate
About 2,100 (0.62%) of roughly 340,000 compounds were called active. A selection follows. Entries with a potency or affinity are not part of this list.
Value expressed in %; do not type the unit.

q: Name the recorded inhibition for CCOC(=O)c1c(C)[nH]c(C(=O)OCC(=O)Nc2cc(C)c(Cl)cc2OC)c1C .
a: 10.4

###

# studyTarget: Rac GTPase-activating protein 1 (Homo sapiens)
# methodDescription: blockers of MgcRacGAP-driven Rac1 GTP hydrolysis – biochemical, ADP Hunter fluorescence, primary and confirmatory, confirmation (AID 624330);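 further: fluorescence reports GDP produced by GAP-driven GTP hydrolysis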
# statedConditions: MgcRacGAP-stimulated Rac1 GTP hydrolysis, at 30 µM, hits give high values, GST-tagged Rac1 F28L mutant substrate
Screen size: about 340,000 compounds; about 2,100 (0.62%) were called active. Only a sample is shown. Results with a measured potency or affinity are listed apart.
// Criterion not met strictly below 10% in inhibition; Criterion met otherwise

q: hey, is inhibition for this one >= 10%? O=C1C2C3C=CC(CC3)C2C(=O)N1/N=C/c1ccccc1O (configuration not stated)
a: Criterion not met

q: hey, is inhibition for this one >= 10%? CCN1CCN(CC(=O)Nc2cc(C)on2)CC1
a: Criterion met

q: hey, is inhibition for this one >= 10%? COC(=O)C1CCN(C(=O)Cc2ccc(OC)c(OC)c2)CC1
a: Criterion not met

q: hey, is inhibition for this one >= 10%? Cc1ccc(O)c(CN(C)Cc2cc(C)ccc2O)c1
a: Criterion not met

q: hey, is inhibition for this one >= 10%? O=C(CN1CCCCC1)Nc1ccc(S(=O)(=O)NC2CCCCC2)cc1
a: Criterion not met

q: hey, is inhibition for this one >= 10%? Cc1cc(NC(=O)CN2CCCCCCC2)no1
a: Criterion met

q: hey, is inhibition for this one >= 10%? Cc1cn(CC(=O)NCc2ccc(N(C)C)cc2)c(=O)[nH]c1=O
a: Criterion met

q: hey, is inhibition for this one >= 10%? Cc1cc(NC(=O)CN2CCCC(C)C2)no1 (configuration not stated)
a: Criterion met

q: hey, is inhibition for this one >= 10%? CCc1cc2c(C)ccc(C)c2nc1SCC(=O)Nc1c(C)[nH]c(=O)[nH]c1=O
a: Criterion not met

###

# studyTarget: Rac GTPase-activating protein 1 (Homo sapiens) (UniProt Q9H0H5)
# methodDescription: blockers of MgcRacGAP-driven Rac1 GTP hydrolysis – biochemical, ADP Hunter fluorescence, primary and confirmatory, confirmation (AID 624330);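 further: fluorescence reports GDP produced by GAP-driven GTP hydrolysis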
# statedConditions: MgcRacGAP-stimulated Rac1 GTP hydrolysis, at 30 µM, hits give high values, GST-tagged Rac1 F28L mutant substrate
The whole screen tested about 340,000 compounds, of which about 2,100 (0.62%) were called active. Not all results are given here. Measured potencies and affinities stand elsewhere.
experimentalEndpoint: inhibition (%)
Value expressed in %; do not type the unit.

Known results for compounds:
compound | recordedResult
COc1cc2c(cc1OC)-c1cc(NC3CC3)nc(=O)n1CC2 | 3.36
COC(=O)C1C(O)=C(C=Nc2ccc3ccccc3c2)C(=O)CC1(C)C (stereo unspecified) | 4.62
Cc1cccc(OCC(=O)Nc2nnc(S(=O)(=O)N3CCCCCC3)s2)c1 | 9.88
Cc1ccc(C)c(N2CCN(CCCc3ccccc3)CC2)c1 | -8.46
Cc1nc2sc(C(c3cccs3)N3CCN(C(=O)c4ccco4)CC3)c(O)n2n1 (stereo unspecified) | 1.66

Please examine the following record next.
q: Name the recorded inhibition for CCCC(=O)C1=C(O)C(C(=O)OC)C(C)(C)CC1=Nc1ccc(N)cc1 (stereo unspecified) .
a: 7.34

###

# studyTarget: Rac GTPase-activating protein 1 (Homo sapiens)
# methodDescription: blockers of MgcRacGAP-driven Rac1 GTP hydrolysis – biochemical, ADP Hunter fluorescence, primary and confirmatory, confirmation (AID 624330);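 further: fluorescence reports GDP produced by GAP-driven GTP hydrolysis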
# statedConditions: MgcRacGAP-stimulated Rac1 GTP hydrolysis, at 30 µM, hits give high values, GST-tagged Rac1 F28L mutant substrate
Hit rate of the full screen: of about 340,000 compounds, about 2,100 (0.62%) were called active. A selection follows. Measured potencies and affinities stand elsewhere.
Documented inhibition across a set of compounds
Value expressed in %; do not type the unit.

Known results for compounds:
compound | inhibition [%]
O=c1[nH]c(=S)[nH]c(O)c1/C=C1\C=Nc2ccccc21 | -1.08
COc1ccc(C=NNc2nc3ccccc3s2)cc1 | 2.73
COc1cc(CN2CCN(C(O)(c3ccccc3)c3ccccc3)CC2)cc(OC)c1OC | 27.9
CCCN(CCC)Cc1c(C(=O)N/N=C/c2ccoc2)nnn1-c1nonc1N | 6.21
COc1ccccc1Oc1nnnn1-c1ccc(C(N)=O)cc1 | 2.99
Cn1c(O)c(/C=C2\C=Nc3ccccc32)sc1=Nc1ccc(C(=O)O)cc1 | 7.27
CCCCOc1ccc(NC(=O)CN2CCN(C(=O)OCC)CC2)cc1 | 23.5
CCCCCOC(=O)CSc1nc2c(c(=O)[nH]c(=O)n2C)n1Cc1ccc(Cl)cc1 | 1.35

q: Name the recorded inhibition for Cn1c(CCC(=O)OCC(=O)Nc2ccc(Oc3ccccc3)cc2)nc(=O)c2ccccc21 .
a: 2.65

q: Name the recorded inhibition for COc1ccc(CN2CCCCCC2)cc1 .
a: 18.2

q: Name the recorded inhibition for CCCNC(=O)c1onc(CSc2ccc(Cl)cc2)c1C(=O)NCC1CC1 .
a: 7.59

q: Name the recorded inhibition for Cc1ccc(NC(=O)CCN2CCN(CCO)CC2)cc1Br .
a: 7.64

q: Name the recorded inhibition for Oc1ccccc1C=NNc1nc2ccccc2s1 .
a: 4.1

q: Name the recorded inhibition for FC(F)(F)c1ccc(CN2CCCCCC2)cc1 .
a: 16.1

q: Name the recorded inhibition for Cc1ccc(S(=O)(=O)N2CCCCC2)cc1NC(=O)c1c(-c2ccccc2)noc1C .
a: 0.74

q: Name the recorded inhibition for CCOC(=O)N1CCN(CC(=O)Nc2ccc(C)c(Br)c2)CC1 .
a: 19.6
